tested on: Morganella morganii EP-14; assay: Anti-bacterial activity (MIC), agar dilution; type: cell-based; conditions: Morganella morganii, EP14, 18 h, about 10^6 CFU/ml, 37° C., read-out: MIC
Measure name: MIC

*Q* Tell me measured MIC for Nc1nc(/C(=N/OCF)C(=O)N[C@@H]2C(=O)N3C(C(=O)[O-])=C(/C=C/C[N+]4(CC(O)CO)CCCC4)CS[C@H]23)ns1 (single isomer, unassigned) [Example 23-1] please.
*A* ≤ 0.025 µg/mL

*Q* Provide only the value of recorded MIC for Nc1nc(/C(=N/OCF)C(=O)N[C@@H]2C(=O)N3C(C(=O)[O-])=C(/C=C/C[n+]4ccc(C(=O)NCCO)cc4)CS[C@H]23)ns1 [Example 84]
*A* 0.05 µg/mL

*Q* Please look at this compound and report its MIC: C[N+](C)(C/C=C/C1=C(C(=O)[O-])N2C(=O)[C@@H](NC(=O)/C(=N\OCF)c3nsc(N)n3)[C@H]2SC1)Cc1nnco1 [Example 120]
*A* ≤ 0.025 µg/mL

*Q* Provide only the value of recorded MIC for CNC(=O)[C@H](C)[N+](C)(C)C/C=C/C1=C(C(=O)[O-])N2C(=O)[C@@H](NC(=O)/C(=N\OCF)c3nsc(N)n3)[C@H]2SC1 [Example 58]
*A* 0.05 µg/mL

*Q* Give the reported value of MIC for this record: Nc1nc(/C(=N/OC(F)F)C(=O)N[C@@H]2C(=O)N3C(C(=O)[O-])=C(/C=C/C[n+]4ccc(C(=O)O)cc4)CS[C@H]23)ns1 [Example 115]
*A* ≤ 0.025 µg/mL

---
*Q* Given the compound Nc1nc(/C(=N/OCF)C(=O)N[C@@H]2C(=O)N3C(C(=O)[O-])=C(/C=C/C[N+]4(CCO)CC=C(C=NO)CC4)CS[C@H]23)ns1 (stereo partly shown) [Example 42] , write its reported MIC.
*A* ≤ 0.025 µg/mL

*Q* Tell me measured MIC for C[N+](C)(C/C=C/C1=C(C(=O)[O-])N2C(=O)[C@@H](NC(=O)/C(=N\OC(F)F)c3nsc(N)n3)[C@H]2SC1)CC(N)=O [Example 114] please.
*A* ≤ 0.025 µg/mL

###

system: Morganella morganii EP-14; experiment: Anti-bacterial activity (MIC), agar dilution; format: cell-based; conditions: Morganella morganii, EP14, 18 h, about 10^6 CFU/ml, 37° C., read-out: MIC
Measure name: MIC

These recorded examples may help you get a feel for the data.
*Q* State recorded MIC with Morganella morganii EP-14, entry CC12C[N+](C/C=C/C3=C(C(=O)[O-])N4C(=O)[C@@H](NC(=O)/C(=N\OCF)c5nsc(N)n5)[C@H]4SC3)(CCO1)CCO2 , no comment.
*A* 0.05 µg/mL

*Q* Fill in: MIC on Morganella morganii EP-14, entry Nc1nc(/C(=N/OCF)C(=O)N[C@@H]2C(=O)N3C(C(=O)[O-])=C(/C=C/C[N+](CCO)(CCO)CCO)CS[C@H]23)ns1
*A* ≤ 0.025 µg/mL

*Q* Provide Morganella morganii EP-14 MIC reading for CC(C)(CO)[N+](C)(C)C/C=C/C1=C(C(=O)[O-])N2C(=O)[C@@H](NC(=O)/C(=N\OCF)c3nsc(N)n3)[C@H]2SC1 .
*A* ≤ 0.025 µg/mL

*Q* Write down measured MIC (Morganella morganii EP-14) for this molecule. NC(=O)C[N+]1(C/C=C/C2=C(C(=O)[O-])N3C(=O)[C@@H](NC(=O)/C(=N\OCF)c4nsc(N)n4)[C@H]3SC2)CCN(C(N)=O)CC1
*A* ≤ 0.025 µg/mL

*Q* Report MIC under test system Morganella morganii EP-14 for NC(=O)C[N+]1(C/C=C/C2=C(C(=O)[O-])N3C(=O)[C@@H](NC(=O)/C(=N\OCF)c4nsc(N)n4)[C@H]3SC2)CCCC1 .
*A* ≤ 0.025 µg/mL

Now look at this one.
*Q* Supply MIC measured with Morganella morganii EP-14 for NC(=O)C1CC[N+](C/C=C/C2=C(C(=O)[O-])N3C(=O)[C@@H](NC(=O)/C(=N\OCF)c4nsc(N)n4)[C@H]3SC2)(CCO)CC1 (single isomer, unassigned) .
*A* 0.05 µg/mL

Recorded values, source patent US4921850A.
